assay notes: physchem
condition notes: aqueous with cosolvent or surfactant or cyclodextrin
endpoint name: solubility at 34 days (µg/mL)

• O=C1CCC(N2Cc3cc(CNC(=O)C(F)(F)c4ccc(Cl)cc4)ccc3C2=O)C(=O)N1 (stereo not shown) = 98

* * *

assay notes: physchem
Assay type: physicochemical
condition notes: water
From the text: “Compound 1, Form C” or “Form C” or “API”” in the Examples herein refers to polymorph Form C of 2-(4-chlorophenyl)-N-((2-(2,6-dioxopiperidin-3-yl)-1-oxoisoindolin-5-yl)methyl)-2,2-difluoroacetamide. “Compound 1, Form A” or “Form A” in the Examples herein refers to polymorph Form A of 2-(4-chlorophenyl)-N-((2-(2,6-dioxopiperidin-3-yl)-1-oxoisoindolin-5-yl)methyl)-2,2-difluoroacetamide.
endpoint name: solubility

- O=C1CCC(N2Cc3cc(CNC(=O)C(F)(F)c4ccc(Cl)cc4)ccc3C2=O)C(=O)N1 (stereo not shown) [Compound 1]: ≤ 1 µg/mL

* * *

System: HNT-34
assay notes: In vitro combination studies, CellTitre-Glo cell viability
condition notes: HNT-34; in combination with Compound 1
endpoint name: Synergy analysis for combinations with Compound 1

• CO[C@H]1/C=C\C=C(/C)C(=O)NC2=CC(=O)C(NCCN(C)C)=C(C[C@@H](C)C[C@H](OC)[C@H](O)[C@@H](C)/C=C(\C)[C@@H]1OC(N)=O)C2=O [Alvespimycin] = No
• CC(C)C[C@H](NC(=O)CNC(=O)c1cc(Cl)ccc1Cl)B(O)O [Ixazomib] = No
• CC(C)C[C@H](NC(=O)[C@@H](NC(=O)c1cccc(-c2ccccc2)n1)[C@@H](C)O)B(O)O [CEP-18770] = No
• O=C(/C=C/c1ccccc1)NC(NC(=S)Nc1cccc2cccnc12)C(Cl)(Cl)Cl (stereo not shown) [Salubrinol] = No

* * *

System: OCI-AML-2
assay notes: In vitro combination studies, CellTitre-Glo cell viability
condition notes: OCI-AML-2; in combination with Compound 1
endpoint name: Synergy analysis for combinations with Compound 1

- CO[C@H]1C[C@@H]2CC[C@@H](C)[C@@](O)(O2)C(=O)C(=O)N2CCCC[C@H]2C(=O)O[C@H]([C@H](C)C[C@@H]2CC[C@@H](OCCO)[C@H](OC)C2)CC(=O)[C@H](C)/C=C(\C)[C@@H](O)[C@@H](OC)C(=O)[C@H](C)C[C@H](C)/C=C/C=C/C=C/1C [everolimus, reference compound]: Yes
- CC(C)[C@]12O[C@H]1[C@@H]1O[C@]13[C@]1(O[C@H]1C[C@H]1C4=C(CC[C@@]13C)C(=O)OC4)[C@@H]2O [Triptolide]: No
- CC(C)C[C@H](NC(=O)[C@H](CCc1ccccc1)NC(=O)CN1CCOCC1)C(=O)N[C@@H](Cc1ccccc1)C(=O)N[C@@H](CC(C)C)C(=O)[C@@]1(C)CO1: No
- CC1(COc2ccc3c(c2)ncn3-c2ccc3cccc(N4CCC(N)CC4)c3n2)COC1: No
- CO[C@H]1CC[C@H](N2C(=O)CNc3ncc(-c4ccc(C(C)(C)O)nc4)nc32)CC1 [CC-223, reference compound]: Yes
- C[C@@H]1C[C@H]2[C@@H]3CCC4=CC(=O)C=C[C@]4(C)[C@@]3(F)[C@@H](O)C[C@]2(C)[C@@]1(O)C(=O)CO: No
- C/C=C(/C)C(=O)O[C@H]1C(C)=C2[C@H]([C@@H]1OC(=O)CCCCCCC)[C@@](C)(OC(C)=O)C[C@H](OC(=O)CCC)[C@@]1(O)[C@H]2OC(=O)[C@@]1(C)O: No
- CCN1C(=O)CNc2ncc(-c3ccc(-c4nc[nH]n4)nc3C)nc21 [CC-115, reference compound]: Yes
- CC(C)n1nc(-c2ccc3oc(N)nc3c2)c2c(N)ncnc21: Yes
- CC(C)C[C@H](NC(=O)[C@@H](NC(=O)c1cccc(-c2ccccc2)n1)[C@@H](C)O)B(O)O: No
- CC(C)C[C@H](NC(=O)CNC(=O)c1cc(Cl)ccc1Cl)B(O)O: No

Taken from patent US20190030018A1.
